The origin of these recorded values is the nanobody polyreactivity screen of Harvey et al. (2022).

Assay: yeast display, Sf9 membrane polyspecificity reagent, FACS + sequencing; frameworks hold sequencing errors
Reported Metric: polyreactivity (PSR sort gate)

[[record]]
query_sequence = "QVQLVESGGGLVQAGGSLRLSCAASGSTFKIYAMAWYRQAPGKERELVAAITGSGGSTYYADSVKGRFTISRDNAKNTVYLQMNSLKPEDTAVYYCAVDVYYYVATEFYEYDYWGQGTQVTVSS"
reported_metric = "polyreactivity (PSR sort gate)"
val = "high polyreactivity"

[[record]]
query_sequence = "QFQLVESGGGLVQAGGSLRLSCAASGLIFVINAMGWYRQAPGKERELDATISSGVSTNYADSVKGRFTISRDNAKNTVYLQMNSLKPEDTAVYYCNKDGVVEVRFTVRQEYDYWGQGTQVTVSS"
reported_metric = "polyreactivity (PSR sort gate)"
val = "low polyreactivity"

[[record]]
query_sequence = "QVQLQDSGGGLVQAGGSLRLSCAASGYIFGSGSMGWFRQAPGKERELVATINNGSSTYYADSVKGRFTISRDNAKNTVYLQMNSLKPEDTAVYYCNRVGTYHSYDYWGQGTQVTVSS"
reported_metric = "polyreactivity (PSR sort gate)"
val = "high polyreactivity"

[[record]]
query_sequence = "QVQLVESGGGLVQAGGSLRLSCAASGSTFTLYAMGWYRQAPGKERELVAAISGIGDSTYYADSVKGRFTISRDYAKNNVYLQKNSLKPEDTAVYYCAADGEYRYDWEYESWGQGTHVTVSS"
reported_metric = "polyreactivity (PSR sort gate)"
val = "low polyreactivity"


Which polyreactivity (PSR sort gate) is reported for this sequence? QVQLVESGGGLVQAGGSLRLSCAASGSIFYYNAMGWYRQAPGTERELVAAITSSGGSTYADSVKGRFTISRDNAKNTVYLQMNSLKPEDTAVYYCATVAHGLWSGSGYIYAYDYWGQGTQVTVSS
low polyreactivity

Which polyreactivity (PSR sort gate) is reported for this sequence? QVQLVESGGRLVQAGGSLSLSCAASGSIFYRNAMGWYSQAPAKEWEFVAVITSSGTSTYYADSVKGRFTISRDNEKNTVSFQMKSLKPEDTAVYYCAADESSPSRGDYWGQGTQVSVSS
low polyreactivity

Which polyreactivity (PSR sort gate) is reported for this sequence? QVQLVESGGGLVQAGGSLRLSCAASGITFPYYAMGWYRQAPGKERELVAAITIRSGRTYYADSVKGRFTISRDNAMNTVYLQMNSLKPEDTAVYYCAARLSNTYGYWGQGTQVTVSS
high polyreactivity

Which polyreactivity (PSR sort gate) is reported for this sequence? QVQLVESGGGLVQAGGSLSLSCAASGRTFSPYAMGWYRQAPGKERELVAAITNGGSTHYADSVKGRFTISRDNAKNTVYLQMNTLKPEYTAVYYCAKSRVLYGYAEYYEMDYWGQGTQVTVSS
low polyreactivity

Which polyreactivity (PSR sort gate) is reported for this sequence? QVQLVESGGGLVQAGGSLRLSCAASGSIFCVYAMGWYRQAPGKERELVAAISQSGGRTYYADSVKGRFTISRDNAKNTVYLQMNSLKPEDTAVYYCAAVVFNVYRRYWGQGTQVTVSS
high polyreactivity

Which polyreactivity (PSR sort gate) is reported for this sequence? QVQLVESRGGLVQAGGSLRLSCAASGIIFQSYTMGWYRQAPGKERELVAAISTSGSTYYADSVKGRFTISRDNAKNTVYLQMNSLKPEDTAVYYCATYRYRIWWWGEYDYWGQGTQVTVSS
high polyreactivity

Which polyreactivity (PSR sort gate) is reported for this sequence? QVQMQESSGGLVHAGGSLRKSCAASGTIYHFHIMGWYRQAPGKEREFVAAIRYGTSTYYADSVKGLFTISRDNEKNTVYVKMNSQKPEDTAVYYCAVYDYLEVYCWYWGQGTQVTVSS
low polyreactivity
